B1: CPEB3 Ribozyme (parent)
chain: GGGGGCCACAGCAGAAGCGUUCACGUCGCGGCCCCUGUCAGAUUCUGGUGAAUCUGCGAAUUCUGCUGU

- Variants of: B1
- experimental details: self-cleavage, relative activity (ratio to wild type); higher = more cleavage; co-transcriptional
Give measured self-cleavage for each item. Keep answers brief.
One number for each entry.

Consider the following illustrative entries.
1) GGGGGCCACAGCUUAAGCGUUCACGUCGCGGCCCCUGUCAGAUUCUGGUGAAUCUGCGAAUUCUGCUGU [A13U G14U] : 0.437
2) GGGGGCCACAGCAGAAGCGUUCACGUCGCGGCCCCCGUCAGAUUCUGUUGAAUCUGCGAAUUCUGCUGU [U36C G48U] : 0.981
3) GGGGGCCACAGCAGAAGCGUUCACGUCGUGGCGCCUGUCAGAUUCUGGUGAAUCUGCGAAUUCUGCUGU [C29U C33G] : 0.226

# return self-cleavage for each item in the list
1. GGGGGCCACAGGAGAAGCGUUCACGUCGCGGCCCCUGUCAGAUUCUGGUGAAUCUGCGAAUUCUCCUGU [C12G G65C]
2. GGGGGGCACAGCAGAAGUGUUCACGUCGCGGCCCCUGUCAGAUUCUGGUGAAUCUGCGAAUUCUGCUGU [C6G C18U]

output:
[0.934, 0.0723]
